# System Under Test: mouse melanocortin-3 receptor (mouse, UniProt P33033 1-323)
# Sequence (P33033 whole entry): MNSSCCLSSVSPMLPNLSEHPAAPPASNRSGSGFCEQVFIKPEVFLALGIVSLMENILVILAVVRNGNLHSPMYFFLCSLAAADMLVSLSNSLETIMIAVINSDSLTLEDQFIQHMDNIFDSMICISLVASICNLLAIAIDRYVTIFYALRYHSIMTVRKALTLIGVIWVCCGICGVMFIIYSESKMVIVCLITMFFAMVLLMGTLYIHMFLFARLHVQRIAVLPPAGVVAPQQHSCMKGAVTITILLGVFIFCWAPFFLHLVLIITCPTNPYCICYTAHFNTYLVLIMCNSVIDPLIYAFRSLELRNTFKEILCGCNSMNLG
# Assay Explanation: radioligand binding
Non-standard residues stand in square brackets, D forms with d. dPhe(4-I) = N[C@H](Cc1ccc(I)cc1)C(=O)O; d2Nal = N[C@H](Cc1ccc2ccccc2c1)C(=O)O; Tic = O=C(O)[C@@H]1Cc2ccccc2CN1
Property Label: pIC50
Just so you know, pIC50 here is -log10 of the concentration in molar units; reply with that number alone.

Record summary for Ac-FR[dPhe(4-I)][Tic]-NH2 [compound 22] : reported pIC50 = 5.60

GET /value?item= Ac-RR[dPhe(4-I)][d2Nal]-NH2 [Ac-Arg-Arg-(pI)DPhe-DNal(2′)-NH2] &field=pIC50 returns 6.36
